- system: M1 (h) (Homo sapiens)
- Construct: purchased Eurofins Cerep (SafetyScreen44), recognised from the panel format
- Sequence (P11229 1-460): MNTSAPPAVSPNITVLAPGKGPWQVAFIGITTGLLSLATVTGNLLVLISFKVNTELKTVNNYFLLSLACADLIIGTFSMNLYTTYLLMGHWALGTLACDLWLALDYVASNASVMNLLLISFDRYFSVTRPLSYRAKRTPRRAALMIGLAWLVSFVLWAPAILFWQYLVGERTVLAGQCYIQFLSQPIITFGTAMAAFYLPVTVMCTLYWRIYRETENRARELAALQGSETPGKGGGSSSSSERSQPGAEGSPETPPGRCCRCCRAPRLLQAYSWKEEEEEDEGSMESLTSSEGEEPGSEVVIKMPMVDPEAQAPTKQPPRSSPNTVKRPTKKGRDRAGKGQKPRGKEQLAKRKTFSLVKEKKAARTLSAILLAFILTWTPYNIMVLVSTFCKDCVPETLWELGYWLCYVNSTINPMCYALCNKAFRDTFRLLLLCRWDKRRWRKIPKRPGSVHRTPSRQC
- experiment_description: In vitro CEREP profiling, M1 (h) (antagonist radioligand)
- Assay type: binding
- stated_conditions: test compound concentration 10 uM
- From the text: Supplement media-1.zip/Safety_Panel_Profile.csv, table | column: perc_inhibition
measure: perc_inhibition (% inhibition of the binding of a ligand specific for each target) (%)
// note: answer is a bare numeric in %

Request the reported perc_inhibition (% inhibition of the binding of a ligand specific for each target) associated with C[C@H](C(=O)O)[C@@H](NC(=O)c1ncnc2[nH]ccc12)c1ccc(Br)cc1
-1

Would you kindly repeat that for Cn1ncc(-c2cc3c(N[C@@H](c4ccc5c(n4)OCCO5)C(C)(C)C)ncnc3[nH]2)c1C#N ?
13

Would you kindly repeat that for CC(C)[C@@H](Nc1ncnc2[nH]c(-c3cnn(C)c3C#N)cc12)c1ccc2c(n1)OCCO2 ?
8

Would you kindly repeat that for COc1ccc([C@H](Cc2nnn[nH]2)NC(=O)c2ncnc3[nH]ccc23)cc1 ?
-4

Would you kindly repeat that for CNCc1cc(-c2cc3c(N[C@@H](c4ccc5c(c4)S(=O)(=O)CCC5)C(C)C)ncnc3[nH]2)co1 ?
47

Would you kindly repeat that for CC(C)[C@H](Nc1ncnc2[nH]ccc12)c1ccc2c(c1)S(=O)(=O)CCC2 ?
19

Would you kindly repeat that for CC(C)[C@H](Nc1ncnc2[nH]c(-c3cnn(C)c3C#N)cc12)c1ccc2c(n1)OCCO2 ?
7

###

- experiment_description: Protein binding
- Assay type: in vitro ADME
- stated_conditions: mouse, plasma, In vitro mouse plasma protein binding
measure: fraction unbound

Request the reported fraction unbound associated with CC(C)C(Nc1ncnc2[nH]c(C(=O)NC3CCN(C)C3)cc12)c1ccc2c(c1)S(=O)(=O)CCC2 (stereo not shown)
0.099

###

Could you please report measured t_half for the items listed next?
- experiment_description: Hepatic microsomal stability, MLM
- Format: in vitro ADME
- stated_conditions: In vitro mouse liver microsomal stability
Answer shape: numeric part, then the unit.

Request the reported t_half associated with CC(C)[C@@H](Nc1ncnc2[nH]c(-c3cnn(CC(N)=O)c3)cc12)c1ccc2c(c1)S(=O)(=O)CCC2
17.4 min

Would you kindly repeat that for CCNC(=O)c1cc2c(NC(c3ccc4c(c3)OCCO4)C(C)C)ncnc2[nH]1 (stereo not shown) ?
19.0 min

Would you kindly repeat that for CC(C)[C@H](Nc1ncnc2[nH]c(-c3cnn(C)c3C#N)cc12)c1ccc2c(c1)NC(=O)CO2 (racemic) [ASAP-0008576] ?
9.4 min

Would you kindly repeat that for CNCc1cc(-c2cc3c(N[C@@H](c4ccc5c(c4)S(=O)(=O)NCC5)C(C)C)ncnc3[nH]2)co1 ?
40.0 min

Would you kindly repeat that for CC(C)[C@@H](Nc1ncnc2[nH]c(-c3cnn(CC(=O)N(C)C)c3)cc12)c1ccc2c(c1)S(=O)(=O)CCC2 [ASAP-0013747] ?
53.8 min

Would you kindly repeat that for CC(C)(C)[C@H](Nc1ncnc2[nH]c(-c3cnn(CC(N)=O)c3)cc12)c1ccc2c(c1)OCCO2 (racemic) [ASAP-0008581] ?
35.2 min

Would you kindly repeat that for CC(C(=O)O)C(NC(=O)c1ncnc2[nH]ccc12)c1ccc(Br)cc1 (mixture of isomers) ?
433.2 min

Would you kindly repeat that for CNC(=O)c1c[nH]c2ncnc(N[C@H](c3ccc4c(c3)S(=O)(=O)CCC4)C(C)C)c12 (single isomer, unassigned) [ASAP-0011153] ?
2.2 min

Would you kindly repeat that for CC(C)[C@H](Nc1ncnc2[nH]c(-c3cnn(CC(N)=O)c3)cc12)c1ccc2c(c1)S(=O)(=O)CCC2 (racemic) [ASAP-0008679] ?
27.4 min

Would you kindly repeat that for CC(C)(C)[C@@H](Nc1ncnc2[nH]c(-c3cnn(CC(N)=O)c3)cc12)c1ccc2c(n1)OCCO2 ?
56.2 min

Would you kindly repeat that for CC(C)[C@H](Nc1ncnc2[nH]c(-c3cnn(CC(=O)N(C)C)c3)cc12)c1ccc2c(c1)OCCO2 (single isomer, unassigned) [ASAP-0013833] ?
48.1 min

Would you kindly repeat that for CC(C)(C)[C@H](Nc1ncnc2[nH]c(-c3cnn(CC(N)=O)c3)cc12)c1ccc2c(n1)OCCO2 (single isomer, unassigned) [ASAP-0011159] ?
162.3 min

Would you kindly repeat that for CC(C)[C@@H](Nc1ncnc2[nH]c(-c3cnn(CC(N)=O)c3)cc12)c1ccc2c(n1)OCCO2 [ASAP-0008646] ?
145.2 min
